These entries and their values trace back to patent US20250228835A1.

# System tested: ABCD2 WT (Homo sapiens, UniProt Q9UBJ2)
# Test method notes: D2 correction dose-response assay: ABCD2 WT HiBit protein expression
# Study conditions: HEK-293/ABCD2 WT cells, 24 hours treatment, HiBit luminescence; class combines EC50 and Mean MaxAct (fold); read-out: ABCD2 WT EC50, Emax
Parameter: EC50

Illustrative cases are given below, each with its answer.
Smiles notation | EC50
Cc1cc(C)c(Oc2nc(-c3cn(C)nc3C)ccc2NS(C)(=O)=O)c(C)c1 | 1000 to 10000 nM
Cc1cc(C)c(Oc2nc(-c3c[nH]c(=O)c(C#N)c3)ccc2NS(C)(=O)=O)c(C)n1 | 1000 to 10000 nM
Cc1cc(C)c(Oc2nc(-c3cncc(Cl)c3)ccc2S(=O)(=O)N[C@H](c2ccccc2)C(F)(F)F)c(C)c1 | 1000 to 10000 nM
Cc1nc(C2CC2)c(C(F)(F)F)cc1Oc1nc(-c2cncc(C#N)c2)ccc1NS(C)(=O)=O | < 1000 nM
Cc1cc(C2CC2)nc(C2CC2)c1Oc1nc(-c2cncc(C#N)c2)ccc1NS(C)(=O)=O | > 25000 nM

Query :: EC50 for `CNS(=O)(=O)c1ccc(-c2cncc(C#N)c2)nc1Oc1c(C)cc(C(F)(F)F)nc1C1CC1` ?
Result :: 1000 to 10000 nM

Query :: // repeat for `Cc1cc(C(F)(F)F)nc(C2CC2)c1Oc1nc(-c2cncc(C#N)c2)ccc1NS(=O)(=O)C(C)C` and report
Result :: < 1000 nM

* * *

# System tested: ABCB4 WT (Homo sapiens)
# Construct: expressed in transfected cells
# Sequence (P21439 whole entry): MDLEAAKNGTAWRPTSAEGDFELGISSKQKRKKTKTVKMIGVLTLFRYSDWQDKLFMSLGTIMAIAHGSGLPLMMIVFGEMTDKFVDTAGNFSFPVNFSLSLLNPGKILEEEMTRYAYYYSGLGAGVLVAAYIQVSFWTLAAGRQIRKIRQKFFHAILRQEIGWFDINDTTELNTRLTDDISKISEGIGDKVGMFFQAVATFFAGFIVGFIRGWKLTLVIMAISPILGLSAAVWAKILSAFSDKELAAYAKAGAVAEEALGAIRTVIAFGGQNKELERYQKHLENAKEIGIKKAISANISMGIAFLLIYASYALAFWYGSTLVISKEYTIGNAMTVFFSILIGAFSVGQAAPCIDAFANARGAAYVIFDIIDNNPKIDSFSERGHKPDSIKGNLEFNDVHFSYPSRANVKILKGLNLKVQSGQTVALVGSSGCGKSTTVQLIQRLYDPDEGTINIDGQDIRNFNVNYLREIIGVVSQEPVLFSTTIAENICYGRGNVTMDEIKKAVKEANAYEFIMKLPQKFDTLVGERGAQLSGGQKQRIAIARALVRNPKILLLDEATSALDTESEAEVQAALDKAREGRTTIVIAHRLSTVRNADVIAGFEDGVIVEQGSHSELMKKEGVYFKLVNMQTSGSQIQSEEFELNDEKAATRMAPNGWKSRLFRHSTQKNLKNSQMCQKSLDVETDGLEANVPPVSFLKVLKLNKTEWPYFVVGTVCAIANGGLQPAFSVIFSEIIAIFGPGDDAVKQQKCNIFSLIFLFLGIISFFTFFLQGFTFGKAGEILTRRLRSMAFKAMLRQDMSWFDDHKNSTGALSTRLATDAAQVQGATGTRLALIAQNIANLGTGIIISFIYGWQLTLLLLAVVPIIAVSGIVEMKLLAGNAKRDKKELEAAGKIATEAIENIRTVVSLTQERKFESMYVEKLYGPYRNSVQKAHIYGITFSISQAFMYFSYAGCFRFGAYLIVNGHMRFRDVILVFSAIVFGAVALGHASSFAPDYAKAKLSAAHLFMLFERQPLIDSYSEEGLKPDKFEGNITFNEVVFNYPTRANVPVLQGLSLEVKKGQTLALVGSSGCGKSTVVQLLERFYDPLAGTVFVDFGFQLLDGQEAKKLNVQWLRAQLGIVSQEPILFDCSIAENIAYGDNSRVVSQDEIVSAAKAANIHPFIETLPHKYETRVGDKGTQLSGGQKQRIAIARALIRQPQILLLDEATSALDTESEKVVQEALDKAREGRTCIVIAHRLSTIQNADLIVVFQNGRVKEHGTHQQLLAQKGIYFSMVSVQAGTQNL
# Test method notes: ABCB4 WT assay: HiBit protein expression
# Type: cell-based
# Study conditions: HEK-293 cells stably expressing HiBit-tagged ABCB4 WT; 24 h treatment; top concentration 30 μM; read-out: ABCB4 WT EC50, Emax
pEC50: −log10 of the molar value.
// values below are reported pEC50

Smiles notation | System tested | Parameter | Result
Cc1cc(C2CC2)nc(C2CC2)c1Oc1nc(-c2cncc(C#N)c2)ccc1S(=O)(=O)NC1CCOCC1 | ABCB4 WT (Homo sapiens) | pEC50 | > 4.60

Query :: Form: Entry = `CS(=O)(=O)Nc1ccc(-c2cncc(C#N)c2)nc1Oc1c(C2CC2)nc(C(F)(F)F)nc1C1CC1` | System = ABCB4 WT (Homo sapiens) | pEC50 = ____
Result :: > 6.00

Query :: Check `CNS(=O)(=O)c1ccc(N2CCN(C(=O)C3CC3)CC2)nc1Oc1c(C)cc(C)cc1C` too.
Result :: > 6.00

Query :: Do the same for `Cc1cc(N2CC(F)(F)C2)nc(C)c1Oc1nc(-c2cncc(C#N)c2)ccc1NS(C)(=O)=O` please
Result :: > 6.00

* * *

# System tested: UniProt Q9UBJ2
# Test method notes: D2 correction dose-response assay: ABCD2 WT HiBit protein expression
# Study conditions: HEK-293/ABCD2 WT cells, 24 hours treatment, HiBit luminescence; class combines EC50 and Mean MaxAct (fold); read-out: ABCD2 WT EC50, Emax
pEC50: −log10 of the molar value.
Parameter: pEC50

Guide cases for pEC50, answers given:
Compound | pEC50
CNS(=O)(=O)c1ccc(-c2cncc(C#N)c2)nc1Oc1c(C)cc(C(F)F)nc1C1CC1 [Compound I-289] | 5.00 to 6.00
Cc1cc(C)c(Oc2nc(-c3cncc(Cl)c3)ccc2NS(=O)(=O)c2cccnc2)c(C2CC2)c1 [Compound I-54] | 5.00 to 6.00
Cc1cc(C)c(Oc2nc(-c3cncc(C#N)c3)ccc2NS(=O)(=O)C2COC2)c(C)c1 [Compound I-267] | > 6.00

Query :: Reported pEC50 for Cc1cc(C(F)(F)F)nc(C)c1Oc1nc(-c2cncc(C#N)c2)ccc1NS(C)(=O)=O [Compound I-240] : what is it?
Result :: > 6.00

Query :: Try this compound too: Cc1cc(C)c(Oc2nc(-c3cn[nH]c3)ccc2NS(C)(=O)=O)c(C2CC2)c1 [Compound I-2]
Result :: 4.60 to 5.00

Query :: Check Cc1cc(C)c(Oc2cc(-c3cncc(Cl)c3)cnc2NS(=O)(=O)c2cnn(C)c2)c(C)c1 [Compound I-61] too.
Result :: 5.00 to 6.00

Query :: Record: Cc1cc(OC(F)(F)F)nc(C)c1Oc1nc(-c2cncc(C#N)c2)ccc1NS(C)(=O)=O [Compound I-131]
Result :: > 6.00

Query :: How about Cc1cc(C)c(Oc2nc(-c3cncc(Cl)c3)ccc2NS(=O)(=O)C2CC2)c(C)c1 [Compound I-49] ?
Result :: < 4.60

* * *

EC50 reference
# System tested: ABCD2 WT (Homo sapiens, UniProt Q9UBJ2)
# Sequence (Q9UBJ2 1-740): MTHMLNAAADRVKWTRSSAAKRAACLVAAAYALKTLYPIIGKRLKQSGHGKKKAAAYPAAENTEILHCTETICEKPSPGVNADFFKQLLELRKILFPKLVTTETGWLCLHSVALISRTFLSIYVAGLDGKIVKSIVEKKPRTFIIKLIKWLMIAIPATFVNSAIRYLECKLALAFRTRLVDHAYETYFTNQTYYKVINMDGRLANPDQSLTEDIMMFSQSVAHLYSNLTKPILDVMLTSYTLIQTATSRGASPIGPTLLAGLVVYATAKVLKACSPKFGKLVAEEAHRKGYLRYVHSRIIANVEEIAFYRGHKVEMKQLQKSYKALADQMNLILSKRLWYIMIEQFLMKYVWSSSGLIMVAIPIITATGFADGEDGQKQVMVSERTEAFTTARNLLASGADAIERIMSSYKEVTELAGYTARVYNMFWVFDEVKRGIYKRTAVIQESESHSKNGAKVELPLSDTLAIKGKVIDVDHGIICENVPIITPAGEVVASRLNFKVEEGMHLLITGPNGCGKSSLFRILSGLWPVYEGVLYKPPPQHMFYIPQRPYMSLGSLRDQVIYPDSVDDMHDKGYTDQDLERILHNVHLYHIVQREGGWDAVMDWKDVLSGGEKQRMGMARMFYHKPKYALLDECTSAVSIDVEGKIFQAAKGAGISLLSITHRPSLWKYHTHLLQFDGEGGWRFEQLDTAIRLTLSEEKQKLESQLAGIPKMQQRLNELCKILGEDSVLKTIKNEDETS
# Test method notes: D2 correction dose-response assay: ABCD2 WT HiBit protein expression
# Study conditions: HEK-293/ABCD2 WT cells, 24 hours treatment, HiBit luminescence; class combines EC50 and Mean MaxAct (fold); read-out: ABCD2 WT EC50, Emax

Check out these entries, answers already filled in.
Compound | EC50
Cc1cc(C)c(Oc2nc(-c3cc(C#N)c[nH]c3=O)ccc2NS(C)(=O)=O)c(C)n1 | > 25 µM
Cc1cc(C)c(Oc2nc(-c3cccc(C#N)c3)ccc2S(=N)(=O)C2CC2)c(C)n1 (stereo not drawn) | 10 to 25 µM
Cc1cc(C(F)(F)F)nc(C)c1Oc1nc(-c2cncc(C3COC3)c2)ccc1NS(C)(=O)=O | > 25 µM
COc1cc(C)c(Oc2nc(-c3cncc(C#N)c3)ccc2NS(C)(=O)=O)c(C)n1 | < 1 µM
Cc1cc(C)c(Oc2nc(-c3cncc(Cl)c3)ccc2S(=O)(=O)NC(c2ccccn2)C(F)(F)F)c(C)c1 (single isomer, unassigned) [Compound I-80] | 1 to 10 µM
COc1cc(-c2ccc(NS(C)(=O)=O)c(Oc3c(C)cc(C)nc3C)n2)ccn1 | 1 to 10 µM
CNC(=O)N1CCN(c2ccc(NS(C)(=O)=O)c(Oc3c(C)cc(C)cc3C)n2)CC1 | > 25 µM
Cc1cc(C)c(Oc2nc(-c3ccc(C#N)nc3)ccc2NS(C)(=O)=O)c(C)c1 | < 1 µM
Cc1cc(C)c(Oc2nc(-c3cncc(C4COC4)c3)ccc2NS(C)(=O)=O)c(C)n1 | < 1 µM
Cc1cc(C)c(Oc2nc(-c3cncc(C4CN(C)C4)c3)ccc2NS(C)(=O)=O)c(C)n1 | > 25 µM

Query :: What EC50 value was documented for this compound, `Cc1nc(C)c(Oc2nc(-c3cncc(C#N)c3)ccc2NS(C)(=O)=O)c(C2CC2)n1` ?
Result :: 1 to 10 µM

Query :: Can you check `Cc1cc(C)c(Oc2nc(-c3cncc(Cl)c3)ccc2NS(=O)(=O)c2cnn(C)c2)c(C)c1` next?
Result :: < 1 µM

Query :: Next: Cc1cc(C)c(Oc2nc(-c3cncc(C#N)c3)ccc2S(=N)(=O)C2CC2)c(C)n1 (stereo not drawn)
Result :: > 25 µM

Query :: And what about the compound `Cc1cc(C)c(Oc2nc(-c3cncc(Cl)c3)ccc2S(=O)(=O)Nc2cnn(C)c2)c(C2CC2)c1` ?
Result :: < 25 µM

Query :: What do you get for `CCCS(=O)(=O)Nc1ccc(-c2cncc(C#N)c2)nc1Oc1c(C)cc(C)nc1C` ?
Result :: > 25 µM
